Tested on: U2OS
Assay: Multiplex assay against U2OS
Format: toxicity, cell-based
Conditions: human, 48 h, 10 µM, compound concentration 10 uM, replicate 1
RECORDED_METRIC: Total Cell Count

>>> measured_value("CCOC(=O)Nc1cc(-c2ccc(C)c(NS(C)(=O)=O)c2)nn2c(C)nnc12")
662
>>> measured_value("COc1cc(Nc2nccc(-c3cnn4nc(OC)ccc34)n2)cc(C(F)(F)F)c1")
200
>>> measured_value("COc1ccc(-c2ccc3ncc4c(c3c2)n(-c2ccc(N3CCNCC3)c(C(F)(F)F)c2)c(=O)n4C)cn1.O=C(O)/C=C\\C(=O)O [BGT-226]")
260
>>> measured_value("CN1CCN(Cc2ccc(Nc3ncc(Cl)c(Nc4ccccc4S(=O)(=O)N(C)C)n3)cc2)CC1 [DUBERMATINIB]")
146
>>> measured_value("CNC(=O)Nc1ccc(-c2nc(N3CC4CCC(C3)O4)c3cnn(C4CCC5(CC4)OCCO5)c3n2)cc1")
65
>>> measured_value("COc1ccccc1CN[C@H]1C2CCN(CC2)[C@H]1C(c1ccccc1)c1ccccc1 [CP-96345]")
194
>>> measured_value("Cc1cccc(CN2CCN(C(c3ccccc3)c3ccc(Cl)cc3)CC2)c1.Cl.Cl (stereo not drawn)")
299
>>> measured_value("Cc1ccc(C)c(Oc2ccncc2C(=O)N2CCN(C3CC3)c3ccccc32)c1")
213
